- RECORDED CONDITIONS: in acetone, 303.15 K

{"COMPOUND": "O=C(O)c1cccc(O)c1O", "solubility (mole fraction)": 0.113}

* * *

- RECORDED CONDITIONS: in acetone, 278.15 K

{"COMPOUND": "O=C(O)c1cccc(O)c1O", "solubility (mole fraction)": 0.0969}

* * *

- RECORDED CONDITIONS: in acetone, 318.15 K
EXPERIMENTAL READOUT: solubility (mole fraction)

{"COMPOUND": "O=C(O)c1cccc(O)c1O", "RESULT VALUE": 0.127}

* * *

- RECORDED CONDITIONS: in n-propanol, 318.15 K

{"COMPOUND": "O=C(O)c1cccc(O)c1O", "solubility (mole fraction)": 0.0977}
